Data origin, for the record: ChEMBL document CHEMBL2029253

Experiment: Inhibition of sodium hydrogen exchanger-mediated platelet swelling in human
MEASURE: Ki (nM)
Note: unit nM is implicit; provide only the numeric part.

Ask | Ki lookup needed for Cc1ccnc2c1/C(=N/N=C(N)N)CC(c1cc(F)ccc1Cl)C2 (stereo unspecified) , thanks.
Reply | 19
